These data points were gathered from patent US7105521B2.

- SYSTEM: α2 receptors
- MEASUREMENT_NOTES: Receptor binding, [3H]yohimbine, rat cortex
pKi: −log10 of the molar value.
ASSAY_ENDPOINT: pKi

{"columns": ["COMPOUND", "VALUE_MEASURED"],
 "data": [
  ["CC=Cc1ccc(OCC(O)CN2CCN(c3ccccc3Cl)CC2)c(OC)c1 (stereo not shown)", 5.86]
]}

----------
- SYSTEM: α1 receptors
- MEASUREMENT_NOTES: Receptor binding, [3H]prazosin, rat cortex
ASSAY_ENDPOINT: Ki (nM)

{"columns": ["COMPOUND", "VALUE_MEASURED"],
 "data": [
  ["CC=Cc1ccc(OCC(O)CN2CCN(c3ccccc3Cl)CC2)c(OC)c1 (stereo not shown) [eugenosedin-A]", 142]
]}

----------
- SYSTEM: 5-HT re-uptake sites (Rattus norvegicus)
- Construct: the cerebral cortex or striatum was dissected and crude synaptosomes were prepared
- Sequence (P31652 whole entry): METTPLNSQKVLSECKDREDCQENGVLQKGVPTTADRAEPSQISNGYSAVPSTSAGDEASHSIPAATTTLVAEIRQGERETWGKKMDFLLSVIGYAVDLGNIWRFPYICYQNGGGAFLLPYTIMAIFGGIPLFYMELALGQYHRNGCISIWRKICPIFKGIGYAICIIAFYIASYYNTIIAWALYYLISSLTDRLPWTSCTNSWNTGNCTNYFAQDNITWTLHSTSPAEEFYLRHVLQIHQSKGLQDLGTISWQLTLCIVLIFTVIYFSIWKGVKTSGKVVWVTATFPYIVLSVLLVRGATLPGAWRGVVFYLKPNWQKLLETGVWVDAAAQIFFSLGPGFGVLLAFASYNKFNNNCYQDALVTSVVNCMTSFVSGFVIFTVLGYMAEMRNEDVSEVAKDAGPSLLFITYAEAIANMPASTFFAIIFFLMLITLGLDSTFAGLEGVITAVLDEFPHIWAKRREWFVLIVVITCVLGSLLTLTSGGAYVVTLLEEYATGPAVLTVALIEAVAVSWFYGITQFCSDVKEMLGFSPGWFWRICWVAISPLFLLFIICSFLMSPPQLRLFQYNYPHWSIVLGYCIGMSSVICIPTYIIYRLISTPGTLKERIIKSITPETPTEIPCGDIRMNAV
- MEASUREMENT_NOTES: 5-HT re-uptake in cerebral cortex synaptosomes
ASSAY_ENDPOINT: IC50 (µM)

{"columns": ["MOLECULE", "VALUE_MEASURED"],
 "data": [
  ["CC=Cc1ccc(OCC(O)CN2CCN(c3ccccc3Cl)CC2)c(OC)c1 (stereo not shown)", 34.3]
]}
